Every entry's value here was drawn from ChEMBL document CHEMBL1155297.

tested on: Bacillus subtilis; experiment: Antibacterial activity against Bacillus subtilis NCIM 2063 at 200 ug/disk after 24 hrs by agar disk diffusion method; format: functional; settings: NCIM 2063, 24 h, read-out: IZ
reportedProperty: zone of inhibition at 200 µg/disc (mm)

compound="Cc1ccc(S(=O)(=O)CC(C2C(N)=NC(=S)N=C2N)S(=O)(=O)c2ccc(C)cc2)cc1 (centres undefined)" endpointunit=mm numericreadout=22
compound="NC1=NC(=S)N=C(N)C1C(CS(=O)(=O)c1ccc(Cl)cc1)S(=O)(=O)c1ccc(Cl)cc1 (centres undefined)" endpointunit=mm numericreadout=25
compound="NC1=NC(=S)N=C(N)C1C(CC(=O)c1ccccc1)C(=O)c1ccccc1 (centres undefined)" endpointunit=mm numericreadout=24
compound="CN1C(=N)C(C(CC(=O)c2ccccc2)C(=O)c2ccccc2)C(=N)N(C)C1=O (centres undefined)" endpointunit=mm numericreadout=11
compound=O=C(N[C@H](CO)[C@H](O)c1ccc([N+](=O)[O-])cc1)C(Cl)Cl endpointunit=mm numericreadout=44
compound="Cc1ccc(C(=O)CC(C(=O)c2ccc(C)cc2)C2C(N)=NC(=S)N=C2N)cc1 (centres undefined)" endpointunit=mm numericreadout=24
compound="N=C1ON=C(N)C1C(CC(=O)c1ccccc1)C(=O)c1ccccc1 (centres undefined)" endpointunit=mm numericreadout=27
compound="NC1=NC(=O)N=C(N)C1C(CC(=O)c1ccccc1)C(=O)c1ccccc1 (centres undefined)" endpointunit=mm numericreadout=15
compound="Cc1ccc(C(=O)CC(C(=O)c2ccc(C)cc2)C2C(N)=NN=C2N)cc1 (centres undefined)" endpointunit=mm numericreadout=29
compound="Cc1ccc(C(=O)CC(C(=O)c2ccc(C)cc2)C2C(=N)ON=C2N)cc1 (centres undefined)" endpointunit=mm numericreadout=28
compound="N=C1ON=C(N)C1C(CS(=O)(=O)c1ccccc1)S(=O)(=O)c1ccccc1 (centres undefined)" endpointunit=mm numericreadout=32
compound="Cc1ccc(S(=O)(=O)CC(C2C(=N)N(C)C(=O)N(C)C2=N)S(=O)(=O)c2ccc(C)cc2)cc1 (centres undefined)" endpointunit=mm numericreadout=14
compound="Cc1ccc(S(=O)(=O)CC(C2C(=N)ON=C2N)S(=O)(=O)c2ccc(C)cc2)cc1 (centres undefined)" endpointunit=mm numericreadout=29
compound="NC1=NN=C(N)C1C(CS(=O)(=O)c1ccccc1)S(=O)(=O)c1ccccc1 (centres undefined)" endpointunit=mm numericreadout=33
compound="NC1=NN=C(N)C1C(CS(=O)(=O)c1ccc(Cl)cc1)S(=O)(=O)c1ccc(Cl)cc1 (centres undefined)" endpointunit=mm numericreadout=37
compound="NC1=NC(=O)N=C(N)C1C(CS(=O)(=O)c1ccc(Cl)cc1)S(=O)(=O)c1ccc(Cl)cc1 (centres undefined)" endpointunit=mm numericreadout=25
compound="N=C1ON=C(N)C1C(CC(=O)c1ccc(Cl)cc1)C(=O)c1ccc(Cl)cc1 (centres undefined)" endpointunit=mm numericreadout=30
compound="NC1=NC(=O)N=C(N)C1C(CS(=O)(=O)c1ccccc1)S(=O)(=O)c1ccccc1 (centres undefined)" endpointunit=mm numericreadout=19
compound="Cc1ccc(S(=O)(=O)CC(C2C(N)=NC(=O)N=C2N)S(=O)(=O)c2ccc(C)cc2)cc1 (centres undefined)" endpointunit=mm numericreadout=24

====

test system: Proteus vulgaris; test: Antibacterial activity against Proteus vulgaris NCIM 2027 at 100 ug/disk after 24 hrs by agar disk diffusion method; format: functional; settings: NCIM 2027, 24 h, read-out: IZ
Reported values of zone of inhibition at 100 µg/disc for individual entries
reportedProperty: zone of inhibition at 100 µg/disc (mm)

molecule="Cc1ccc(C(=O)CC(C(=O)c2ccc(C)cc2)C2C(N)=NC(=O)N=C2N)cc1 (centres undefined)" reportedproperty="zone of inhibition at 100 µg/disc" numericreadout=13
molecule="NC1=NC(=O)N=C(N)C1C(CC(=O)c1ccc(Cl)cc1)C(=O)c1ccc(Cl)cc1 (centres undefined)" reportedproperty="zone of inhibition at 100 µg/disc" numericreadout=10
molecule="Cc1ccc(S(=O)(=O)CC(C2C(=N)N(C)C(=O)N(C)C2=N)S(=O)(=O)c2ccc(C)cc2)cc1 (centres undefined)" reportedproperty="zone of inhibition at 100 µg/disc" numericreadout=8
molecule="Cc1ccc(C(=O)CC(C(=O)c2ccc(C)cc2)C2C(=N)ON=C2N)cc1 (centres undefined)" reportedproperty="zone of inhibition at 100 µg/disc" numericreadout=21
molecule="NC1=NC(=S)N=C(N)C1C(CS(=O)(=O)c1ccccc1)S(=O)(=O)c1ccccc1 (centres undefined)" reportedproperty="zone of inhibition at 100 µg/disc" numericreadout=19
molecule="Cc1ccc(S(=O)(=O)CC(C2C(=N)ON=C2N)S(=O)(=O)c2ccc(C)cc2)cc1 (centres undefined)" reportedproperty="zone of inhibition at 100 µg/disc" numericreadout=24
molecule="NC1=NN=C(N)C1C(CS(=O)(=O)c1ccccc1)S(=O)(=O)c1ccccc1 (centres undefined)" reportedproperty="zone of inhibition at 100 µg/disc" numericreadout=24
molecule="CN1C(=N)C(C(CC(=O)c2ccccc2)C(=O)c2ccccc2)C(=N)N(C)C1=O (centres undefined)" reportedproperty="zone of inhibition at 100 µg/disc" numericreadout=6
molecule="NC1=NN=C(N)C1C(CC(=O)c1ccccc1)C(=O)c1ccccc1 (centres undefined)" reportedproperty="zone of inhibition at 100 µg/disc" numericreadout=23
